- Test system: BT-549 breast
- measurement.notes: NCI tumour cell line growth inhibition, 48 h
Record form. Attribute: TGI. Fill in for each entry.
Field format: number, assumed µM, no unit text.

Query: State, in one line, measured TGI of O=C1/C(=C/c2ccc(F)cc2)COc2ccc(O)c(O)c21
Response: 8.73

Query: State, in one line, measured TGI of CCOC(=O)/C(C(N)=O)=C(\O)C(=O)/C=C(\O)c1ccc(Cl)cc1
Response: 33.6

Query: State, in one line, measured TGI of CCCC(=O)Oc1ccc(/C(=C(\C)c2ccc(Cl)cc2)c2ccc(OCCN(CC)CC)cc2)cc1
Response: 18.9

Query: State, in one line, measured TGI of COC(=O)CNC(=O)C(=O)c1c(O)c(O)c(C(C)C)c2cc(C)c(-c3c(C)cc4c(C(C)C)c(O)c(O)c(C(=O)C(=O)NCC(=O)OC)c4c3O)c(O)c12
Response: 11.8

Query: State, in one line, measured TGI of COc1ccc2[nH]c3c(C)c4c(c(C)c3c2c1)CN(C)C=C4
Response: 4.41

Query: State, in one line, measured TGI of Cc1cccc(CNc2c3ccccc3nc3ccccc23)c1
Response: 6.32

Query: State, in one line, measured TGI of COc1ccc2[nH]c3ccc4cc[n+](CCN5CCC(C6CCN(CC[n+]7ccc8ccc9[nH]c%10ccc(OC)cc%10c9c8c7)CC6)CC5)cc4c3c2c1
Response: 50

Query: State, in one line, measured TGI of ClCCCN1CCN(CCCl)CC1
Response: 423

Query: State, in one line, measured TGI of Nc1[nH]nc(Nc2ccccc2)c1-c1nc2ccccc2s1
Response: 3.34

---

- Test system: SF-295 CNS
- measurement.notes: NCI tumour cell line growth inhibition, 48 h
test.readout: TGI (µM)
Field format: number, assumed µM, no unit text.

Query: State, in one line, measured TGI of COc1ccc(-n2nc(C)c3c(Nc4ccc(NC(=O)Nc5cccc(C(F)(F)F)c5)cc4)ncnc32)cc1
Response: 3.3

Query: State, in one line, measured TGI of Cc1ccc([N+](=O)[O-])cc1S(=O)(=O)Nc1ccc(C2=NN(S(=O)(=O)c3cc([N+](=O)[O-])ccc3C)C(c3cccs3)C2)cc1 (centres undefined)
Response: 69.2

Query: State, in one line, measured TGI of CC1=C[P+](c2ccccc2)(c2ccccc2)c2ccccc2O1
Response: 38.9

Query: State, in one line, measured TGI of Nc1cc(CO)cc(Nc2c3ccccc3nc3ccccc23)c1
Response: 25.3

Query: State, in one line, measured TGI of Cc1cc(NS(=O)(=O)c2ccc(NC(=O)c3ccc(Cl)c4c(Nc5ccc(S(=O)(=O)Nc6cc(C)on6)cc5)c5ccccc5nc34)cc2)no1
Response: 57.4

---

Record form. Attribute: GI50. Fill in for each entry.

Query: Tell me its GI50 on U251 CNS: CN(C)Cc1ccc(NC(=O)c2cncc(C#Cc3cnc(N)c4ncccc34)c2)cc1C(F)(F)F
Response: 1.63 µM

Query: Tell me its GI50 on U251 CNS: CN[C@@H](C)C(=O)N[C@H](C(=O)N1CCC[C@H]1c1nc(C(=O)c2ccc(F)cc2)cs1)C1CCCCC1
Response: 15.6 µM

Query: Tell me its GI50 on U251 CNS: N#CC1=C(N)NC(=O)C(C#N)C12Nc1ccccc1S2 (stereo not given)
Response: > 100 µM

Query: Tell me its GI50 on U251 CNS: O=[N+]([O-])c1ccccc1/C=N\NC(=S)N/N=C/c1ccccc1[N+](=O)[O-]
Response: 4.9 µM

Query: Tell me its GI50 on U251 CNS: O=[N+]([O-])c1ccc(Sc2cccc[n+]2[O-])c2nonc12
Response: 3.56 µM

Query: Tell me its GI50 on U251 CNS: COc1ccc(C2=Nn3c(nnc3-c3ccc(F)c(Cl)c3)SC2)cc1
Response: > 100 µM

Query: Tell me its GI50 on U251 CNS: C[C@H]1C[C@@H](n2c(Nc3ccc(OC(F)(F)F)cc3)nc3cc(CCC(=O)O)ccc32)CC(C)(C)C1
Response: 11.2 µM

Query: Tell me its GI50 on U251 CNS: ClCCCN1CCN(CCCl)CC1
Response: 79.6 µM

Query: Tell me its GI50 on U251 CNS: COc1ccc(-n2cc(-c3cc(OC)c(OC)c(OC)c3)nc2SCc2cccc(C#N)c2)cc1OC
Response: > 100 µM

Query: Tell me its GI50 on U251 CNS: O=C1c2c(c3c4cc(F)ccc4oc3c3[nH]c4ccccc4c23)C(=O)N1O
Response: 0.904 µM

---

- Test system: RXF 393 renal
- measurement.notes: NCI tumour cell line growth inhibition, 48 h
Record form. Attribute: TGI. Fill in for each entry.

Query: State, in one line, measured TGI of ClCCCN1CCN(CCCl)CC1
Response: 439 µM

Query: State, in one line, measured TGI of COc1cc(/C=C/C(=O)c2c(C)n([O-])c3ccccc3[n+]2=O)cc(OC)c1OC
Response: 20.4 µM

Query: State, in one line, measured TGI of CN(c1cccc(C(=O)O)c1)c1cc(O/N=[N+](\[O-])N(C)C)c([N+](=O)[O-])cc1[N+](=O)[O-]
Response: > 100 µM

Query: State, in one line, measured TGI of N.N.N.N.N#N.N#N.[Cl-].[Os+6]
Response: > 100 µM

Query: State, in one line, measured TGI of Cc1ccc(C(=O)Nc2ccc(S(=O)(=O)O)c3cc(S(=O)(=O)O)cc(S(=O)(=O)O)c23)cc1NC(=O)c1cccc(NC(=O)Nc2cccc(C(=O)Nc3cc(C(=O)Nc4ccc(S(=O)(=O)O)c5cc(S(=O)(=O)O)cc(S(=O)(=O)O)c45)ccc3C)c2)c1
Response: > 100 µM

Query: State, in one line, measured TGI of O=C(O)/C=C/c1c2ccc(=O)c(O)c-2oc2c(O)c(O)ccc12
Response: > 100 µM

Query: State, in one line, measured TGI of Nc1nnc(N)n1N
Response: > 100 µM

Query: State, in one line, measured TGI of N#CN1CC[C@@H]2CC3(CCC2C1)OCCO3 (stereo partly specified)
Response: > 100 µM

Query: State, in one line, measured TGI of O=[N+]([O-])c1ccc(C[P+]2(c3ccccc3)CCCCC2)cc1 (tested in a mixture with another compound)
Response: > 100 µM

Query: State, in one line, measured TGI of NCCCn1c(Cl)nc2ccccc21
Response: > 100 µM

Query: State, in one line, measured TGI of CC(C)(C)OC(=O)NCCCCCCCCCn1c2c(c3ccccc3c1=O)C(=O)c1ccccc1-2
Response: > 100 µM

Query: State, in one line, measured TGI of O=C(CSSCC(=O)c1ccc(Cl)cc1)c1ccc(Cl)cc1
Response: 14.7 µM

Query: State, in one line, measured TGI of COc1cc2ncnc(NS(=O)(=O)c3cc4ccccc4s3)c2cc1OC
Response: > 100 µM

Query: State, in one line, measured TGI of CCCC(=O)OCC1OC(n2cc(F)c(=O)[nH]c2=O)CC1OC(=O)CCC (stereo unspecified)
Response: > 10 µM

Query: State, in one line, measured TGI of COc1ccc2c(c1OC)C(=O)C2
Response: > 100 µM

Query: State, in one line, measured TGI of O=C(n1c2ccccc2c2n[nH]c(=S)nc21)C(F)(F)F
Response: > 100 µM

Query: State, in one line, measured TGI of COc1ccc(C2CC(c3sc(Nc4ccc(C)cc4)nc3C)=NN2)cc1 (stereo unspecified)
Response: 27.1 µM

Query: State, in one line, measured TGI of O=C(O)CCC(O)=C1S(=O)(=O)OCCOS1(=O)=O
Response: > 100 µM

Query: State, in one line, measured TGI of Nc1nc(N)nc(CCCCc2nc(N)nc(N)n2)n1
Response: > 100 µM

Query: State, in one line, measured TGI of COc1c(C(=O)/C(=N/Nc2ccc(C(=O)O)cc2)C(C)=O)c(O)cc2occc12
Response: > 100 µM

Query: State, in one line, measured TGI of COc1cc(/C=C/c2ccc(OC)c(OC)c2)oc(=O)c1
Response: > 216 µM

---

- Tested on: K-562 leukemia
- measurement.notes: NCI tumour cell line growth inhibition, 48 h
test.readout: TGI

Query: State, in one line, measured TGI of COc1cc(/C=C/C(=O)CC(=O)/C=C/c2cc(C)c(O)c(OC)c2)cc(C)c1O
Response: > 100 µM

Query: State, in one line, measured TGI of COc1ccc(C2CC(c3sc(Nc4ccc(C)cc4)nc3C)=NN2)cc1 (stereo not given)
Response: 39.1 µM

Query: State, in one line, measured TGI of Cc1cc(NC(=O)NCCOc2ccc(N3C(N)=NC(N)=NC3(C)C)cc2Cl)ccc1S(=O)(=O)F
Response: > 100 µM

Query: State, in one line, measured TGI of O=C(CC(C(=O)c1ccsc1)c1cccs1)c1ccccc1 (stereo not given)
Response: > 100 µM

Query: State, in one line, measured TGI of COc1cc2ncnc(NS(=O)(=O)c3cc4ccccc4s3)c2cc1OC
Response: > 100 µM
